Value source: patent US9376425B2

assayTarget: human MDM2 (GST-hMDM2 1-188), interaction with biotinylated-p53 (1-83) (Homo sapiens, UniProt Q00987)
Construct: Amino acid residues 1-188 of human MDM2 were expressed
Sequence (Q00987 1-188): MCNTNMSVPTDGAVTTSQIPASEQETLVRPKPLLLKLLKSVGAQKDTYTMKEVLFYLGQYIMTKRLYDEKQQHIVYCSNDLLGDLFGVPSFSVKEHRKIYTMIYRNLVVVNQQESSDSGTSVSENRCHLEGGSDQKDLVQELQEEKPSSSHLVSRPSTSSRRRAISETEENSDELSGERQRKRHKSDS
testMethodNotes: improved HTRF assay (HTRF2 assay), inhibition of HDM2-p53 interaction
testContext: 0.2 nM GST-hMDM2, 0.5 nM biotinylated-p53, 100 mM KF

compound | IC50
CC(C)[C@@H](CN(c1ccccc1F)S(=O)(=O)C(C)C)N1C(=O)[C@@H](CC(=O)O)O[C@H](c2cccc(Cl)c2)[C@H]1c1ccc(Cl)cc1 (single isomer, unassigned) [Example 198] | 1 nM
C[C@H]1CCCN1S(=O)(=O)C[C@H](C1CC1)N1C(=O)[C@@](C)(CC(=O)O)O[C@H](c2cccc(Cl)c2)[C@H]1c1ccc(Cl)cc1 (single isomer, unassigned) [Example 336] | < 1 nM
O=C(O)C[C@H]1O[C@H](c2cccc(Cl)c2)[C@@H](c2ccc(Cl)cc2)N([C@H](CS(=O)(=O)N2CCOCC2)C2CC2)C1=O (single isomer, unassigned) [Example 303] | 1 nM
C[C@@H](CS(=O)(=O)C(C)(C)C)N1C(=O)[C@@H](CC(=O)O)O[C@H](c2cc(F)cc(Cl)c2)[C@H]1c1ccc(Cl)c(F)c1 (single isomer, unassigned) [Example 424] | 3 nM
CC[C@@H](CCS(=O)(=O)C(C)(C)C)N1C(=O)[C@@H](CC(=O)O)O[C@H](c2cccc(Cl)c2)[C@H]1c1ccc(Cl)cc1 (single isomer, unassigned) [Example 220] | 9 nM

* * *

assayTarget: human MDM2 (GST-hMDM2 1-188), interaction with biotinylated-p53 (1-83) (Homo sapiens, UniProt Q00987)
Construct: Amino acid residues 1-188 of human MDM2 were expressed
testMethodNotes: improved HTRF assay (HTRF2 assay), inhibition of HDM2-p53 interaction
testContext: 0.2 nM GST-hMDM2, 0.5 nM biotinylated-p53, 100 mM KF
Method: Residues 1-83 of human p53 were expressed as an amino-terminal AviTag™-TrxA-6xHis fusion protein (biotinylated p53) in E. coli. Each protein was purified from cell paste by affinity chromatography. Specifically, 10 uL of GST-hMDM2 was incubated with 10 ul of diluted compound (various concentrations, serially diluted) in 10% DMSO for 20 minutes at room temperature. […] Time-resolved fluorescence readings were measured on a microplate multilabel reader. […]
pIC50: −log10 of the molar value.
recordedEndpoint: pIC50

molecule | recordedEndpoint | relationQualifier | endpointResult
CC[C@@H](CS(=O)(=O)N1CCC[C@@H]1C)N1C(=O)[C@@H](CC(=O)O)O[C@H](c2cccc(Cl)c2)[C@H]1c1ccc(Cl)cc1 (single isomer, unassigned) [Example 208] | pIC50 | = | 8.70
CC[C@@H](CS(=O)(=O)C(C)(C)C)N1C(=O)[C@H](CC(N)=O)O[C@H](c2cccc(Cl)c2)[C@H]1c1ccc(Cl)cc1 (single isomer, unassigned) | pIC50 | = | 8.10
CC[C@@H](CS(=O)(=O)C(C)(C)C)N1C(=O)[C@@H](C[C@@H](O)CO)O[C@H](c2cccc(Cl)c2)[C@H]1c1ccc(Cl)cc1 (single isomer, unassigned) [Example 371] | pIC50 | = | 7.82
CC[C@@H](CN(c1ccccc1F)S(=O)(=O)C1CC1)N1C(=O)[C@@H](CC(=O)O)O[C@H](c2cccc(Cl)c2)[C@H]1c1ccc(Cl)s1 (single isomer, unassigned) [Example 216] | pIC50 | > | 9.00
C[C@H]1CCCN1S(=O)(=O)C[C@H](C1CC1)N1C(=O)[C@@H](CC(=O)O)O[C@H](c2cccc(Cl)c2)[C@H]1c1ccc(Cl)cc1 (single isomer, unassigned) [Example 296] | pIC50 | > | 9.00
CC[C@@H](CS(=O)(=O)c1ccccn1)N1C(=O)[C@@H](CC(=O)O)O[C@H](c2cccc(Cl)c2)[C@H]1c1ccc(Cl)cc1 (single isomer, unassigned) [Example 202] | pIC50 | = | 8.40
CNC(=O)C[C@H]1O[C@H](c2cccc(Cl)c2)[C@@H](c2ccc(Cl)cc2)N([C@H](CN(c2ccccc2F)S(=O)(=O)C2CC2)C2CC2)C1=O (single isomer, unassigned) [Example 364] | pIC50 | > | 9.00
CC[C@@H](CS(=O)(=O)C(C)(C)C)N1C(=O)[C@@H](CC(=O)O)O[C@H](c2cccc(Cl)c2)[C@H]1c1ccc(Cl)c(F)c1 (single isomer, unassigned) [Example 182] | pIC50 | = | 8.40
CC(C)(C)S(=O)(=O)C[C@H](C1CC1)N1C(=O)[C@@](C)(CC(=O)O)O[C@H](c2cccc(Cl)c2)[C@H]1c1ccc(Cl)c(F)c1 (single isomer, unassigned) [Example 412] | pIC50 | = | 7.96
CC[C@@H](CS(=O)(=O)C(C)(C)C)N1C(=O)[C@@H](CNC(C)=O)O[C@H](c2cccc(Cl)c2)[C@H]1c1ccc(Cl)cc1 (single isomer, unassigned) [Example 380] | pIC50 | = | 7.32
